target: Aromatase (Homo sapiens)
Sequence (P11511 whole entry): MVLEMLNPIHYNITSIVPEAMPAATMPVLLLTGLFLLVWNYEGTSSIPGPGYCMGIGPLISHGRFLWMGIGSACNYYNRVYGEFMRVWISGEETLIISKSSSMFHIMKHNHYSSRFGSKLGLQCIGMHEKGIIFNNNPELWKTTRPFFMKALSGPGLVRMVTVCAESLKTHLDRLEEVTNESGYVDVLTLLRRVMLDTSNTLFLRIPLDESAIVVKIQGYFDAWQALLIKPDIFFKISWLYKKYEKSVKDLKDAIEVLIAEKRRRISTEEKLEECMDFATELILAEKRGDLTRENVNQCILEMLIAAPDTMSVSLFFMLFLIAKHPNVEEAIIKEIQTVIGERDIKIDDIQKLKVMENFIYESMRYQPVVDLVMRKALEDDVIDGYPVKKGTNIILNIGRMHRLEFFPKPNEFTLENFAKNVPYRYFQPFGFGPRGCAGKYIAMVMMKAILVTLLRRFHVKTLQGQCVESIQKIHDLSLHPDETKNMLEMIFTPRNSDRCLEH
assay comment: Inhibition of human recombinant aromatase assessed as conversion of O-dibenzylfluorescein benzyl ester substrate to fluorescein byproduct by fluorometric assay
Would you kindly list Ki for each of these molecules?
Answer with a number only, understood to be in nM.

Which Ki is listed for CC(=O)O[C@H](c1ccccc1)[C@@H](Cn1ccnn1)c1ccccc1 (relative stereo) ? 250

Which Ki is listed for CC(=O)O[C@@H](c1ccccc1)[C@@H](Cn1ccnn1)c1ccccc1 (relative stereo) ? 60

Which Ki is listed for COCO[C@@H](c1ccccc1)[C@@H](Cn1ccnn1)c1ccccc1 (relative stereo) ? 790

Which Ki is listed for O=C(c1ccccc1)C(Cn1ccnn1)c1ccccc1 (configuration not stated) ? 1000

Which Ki is listed for COCO[C@H](c1ccccc1)[C@@H](Cn1ccnn1)c1ccccc1 (relative stereo) ? 80

Which Ki is listed for O=C(O[C@@H](c1ccccc1)[C@@H](Cn1ccnn1)c1ccccc1)c1ccccc1 (relative stereo) ? 100

Which Ki is listed for O[C@H](c1ccccc1)[C@@H](Cn1ccnn1)c1ccccc1 (relative stereo) ? 50
